Biological target: T1, hBCMA (human BCMA) (Homo sapiens, UniProt Q02223)
T1 sequence (Q02223 1-184): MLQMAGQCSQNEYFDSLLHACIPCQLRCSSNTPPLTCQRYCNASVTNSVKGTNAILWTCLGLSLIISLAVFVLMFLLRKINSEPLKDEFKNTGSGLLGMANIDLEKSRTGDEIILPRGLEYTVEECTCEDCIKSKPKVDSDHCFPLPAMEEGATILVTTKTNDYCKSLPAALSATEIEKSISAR
Experiment: Kinetics and affinity of hBCMA/human IgG interactions by SPR (Bio-Rad Proteon XPR36)
Type: binding
Settings: huBCMA, 37° C.
EXPERIMENTAL READOUT: kd (1/s) huBCMA @37° C. (s⁻¹)
Answer with a number only, understood to be in s⁻¹.

Worked examples, 2 molecules total:
{"MOLECULE": "L3.PY/L1.PH/H2.QR: anti-BCMA antibody (antibody, V domains shown) VH: EVQLLESGGGLVQPGGSLRLSCAASGFTFGSYAMTWVRQAPGKGLEWVSAISGSGGNTFYADQRKGRFTISRDNSKNTLYLQMNSLRAEDTAVYYCARVSPIASGMDYWGQGTLVTVSS VL: EIVLTQSPGTLSLSPGERATLSCRASQSVSPHYLAWYQQKPGQAPRLLIYGASSRATGIPDRFSGSGSGTDFTLTISRLEPEDFAVYYCQHYPYPPSFTFGQGTKVEIK", "READING UNIT": "s⁻¹", "kd (1/s) huBCMA @37° C.": 0.00236}
{"MOLECULE": "L3.PY/H2.YQ: anti-BCMA antibody (antibody, V domains shown) VH: EVQLLESGGGLVQPGGSLRLSCAASGFTFGSYAMTWVRQAPGKGLEWVSAISYQGGNTFYADSVKGRFTISRDNSKNTLYLQMNSLRAEDTAVYYCARVSPIASGMDYWGQGTLVTVSS VL: EIVLTQSPGTLSLSPGERATLSCRASQSVSSSYLAWYQQKPGQAPRLLIYGASSRATGIPDRFSGSGSGTDFTLTISRLEPEDFAVYYCQHYPYPPSFTFGQGTKVEIK", "READING UNIT": "s⁻¹", "kd (1/s) huBCMA @37° C.": 0.00156}

Now for another entry.
# input Please indicate kd (1/s) huBCMA @37° C. recorded for L3.PY/L1.AH/H3.TAQ: anti-BCMA antibody (antibody, V domains shown) VH: EVQLLESGGGLVQPGGSLRLSCAASGFTFGSYAMTWVRQAPGKGLEWVSAISGSGGNTFYADSVKGRFTISRDNSKNTLYLQMNSLRAEDTAVYYCTRVSPIAAQMDYWGQGTLVTVSS VL: EIVLTQSPGTLSLSPGERATLSCRASQSVSAHYLAWYQQKPGQAPRLLIYGASSRATGIPDRFSGSGSGTDFTLTISRLEPEDFAVYYCQHYPYPPSFTFGQGTKVEIK
# output 0.00119
